Test system: 997537-175-T-J1-PDC complex spheroid viability;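 further: spheroids exposed to the agents for 7 days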
Assay: Anticancer human tumor 997537-175-T-J1-PDC patient-derived colon adenocarcinoma cell line growth inhibition [GQUAD]
Conditions: second compound 1 µM; first compound 0.316 µM; stronger effect = lower value
Mark fulfilled only when viability, T/C stays strictly below 90%. Values equal to the cut-off are not fulfilled.

Worked examples follow.
INSERT INTO measurements (compound, category_label) VALUES
  ('Cn1ncnc1[C@H]1c2n[nH]c(=O)c3cc(F)cc(c23)N[C@@H]1c1ccc(F)cc1 + CN(C)c1ccc(Nc2c3ccc(NC(=O)CCN4CCCC4)cc3nc3cc(NC(=O)CCN4CCCC4)ccc23)cc1', 'fulfilled'),
  ('COc1cccc2c1C(=O)c1c(O)c3c(c(O)c1C2=O)CC(O)(C(=O)CO)CC3OC1CC(N)C(O)C(C)O1 (stereo not given) + CN(C)c1ccc(Nc2c3ccc(NC(=O)CCN4CCCC4)cc3nc3cc(NC(=O)CCN4CCCC4)ccc23)cc1', 'not fulfilled');

Turning now to a further record.
Prompt: Given C=CCn1c(=O)c2cnc(Nc3ccc(N4CCN(C)CC4)cc3)nc2n1-c1cccc(C(C)(C)O)n1 + Cc1cnc(CNC(=O)c2c(=O)c3ccc(N4CCCN(C)CC4)nc3n3c2sc2ccccc23)cn1 , is recorded viability, T/C strictly lower than 90%?
Completion: not fulfilled
